These data points were gathered from PubChem BioAssay (NCI).

Tested on: DMS 114 small cell lung
Test: NCI tumour cell line growth inhibition, 48 h
Kindly state TGI for each of the entries shown.

Some solved cases for reference:
{"molecule": "CC(C)CC(N)C(=O)OCN1C(=O)C2C3C=CC(C2C1=O)C1C2C(=O)N(COC(=O)C(N)CC(C)C)C(=O)C2C31 (stereo not given)", "test-result": "> 100 µM"}
{"molecule": "CCOC(=O)C1=C(C)Nc2ccccc2S1", "test-result": "> 100 µM"}
{"molecule": "O=[N+]([O-])[C@@H]1C2C=CC(C2)[C@H]1Cl (stereo not given in full)", "test-result": "> 100 µM"}
{"molecule": "COC(=O)C(C#N)=C1c2ccccc2Oc2ccccc21", "test-result": "> 100 µM"}

// for each molecule in input: emit TGI
1. O=C(C#Cc1c[nH]c(=O)[nH]c1=O)c1ccccc1Cl
2. Cc1cc2c(cc1C)[n+](=O)c(C(=O)C/C(=N/NC(=O)c1ccccc1O)C(=O)Nc1ccccc1C(C)C)c(C)n2[O-]
3. O=c1[nH]c2ccccc2cc1C(Cl)=C(Cl)Cl

Solution:
1: 46.9 µM; 2: > 100 µM; 3: > 100 µM

Below is a list of molecules. For each, state its recorded TGI.
1. N#CCCN(c1ccc(C=Nc2cccc([N+](=O)[O-])c2)cc1)S(=O)(=O)c1ccccc1
2. C=CCSC[C@H](NC(=O)COc1ccccc1)C(=O)NC(C(=O)OCc1ccc([N+](=O)[O-])cc1)=C(C)C
3. COC1O[C@H]2CCN(C(=O)OCc3ccccc3)[C@H]2[C@H]1OCc1ccccc1 (stereo not given in full)

Solution:
1: > 100 µM; 2: > 100 µM; 3: > 86.2 µM
